Hi there, I'd appreciate the recorded screen value for every entry that follows.
B1: TET3 peptide 1705-1720 (methylcytosine dioxygenase TET3), 16-mer library wild type / USP8 rhodanese domain (ubiquitin carboxyl-terminal hydrolase 8, residues 174-317) (parent)
chain 1: GLALWEAKMKQLAERA
chain 2: KCETKEKGAITAKELYTMMTDKNISLIIMDARRMQDYQDSCILHSLSVPEEAISPGVTASWIEAHLPDDSKDTWKKRGNVEYVVLLDWFSSAKDLQIGTTLRSLKDALFKWESKTVLRNEPLVLEGGYENWLLCYPQYTTNAKV

- Variants of: B1
- TEST_SUMMARY: peptide-phage display deep mutational scan (M13, 16-mer library, displayed with a C-terminal GGGSG linker encoded by the 3' flank) selected against the GST-tagged USP8 rhodanese domain, four rounds; NGS counts summed over selection …
- CONDITIONS_USED: with USP8 rhodanese domain (ubiquitin carboxyl-terminal hydrolase 8, residues 174-317), 10 µg GST-bait on MaxiSorp, pre-cleared on GST, 2 h at 4 °C, five washes with 0.05% Tween 20 in PBS, not graded, scale: average over two replicas of the peptide's fractional NGS count
Numbers only.

Below are worked cases with known answers.
# MUTATION_ANNOTATION, screen value
measured = [
    ("chain 1 L2F", "4.18e-05"),
    ("chain 1 M9T", 0.000181),
]

Now turn to the next variant.
In: Give the measured screen value of chain 1 L2Y .
Out: 1.73e-05

Where do the numbers come from? From paper PMC12057046.
